test: Food effect; assay type: in vivo, human; details: human, whole blood, oral, 60 mg, MRT, 60 mg single dose, Fed; mean (SD)
resultType: MRT

Query: Read off the recorded MRT for `C=CC(=O)N(C)CCOc1c(N)ncnc1-c1cc(F)cc(NC(=O)c2ccc(C3CC3)cc2F)c1C`
Response: 4.17 h

---

test: Blood pharmacokinetics, multiple ascending dose; format: in vivo, human; settings: human, whole blood, oral, mean residence time (MRT), multiple doses (q.d. and b.i.d.), overall statement
resultType: MRT

Query: Read off the recorded MRT for C=CC(=O)N(C)CCOc1c(N)ncnc1-c1cc(F)cc(NC(=O)c2ccc(C3CC3)cc2F)c1C [Remibrutinib]
Response: < 3 h
